IC50 overview
Tested on: PANC-1
Test: Cytotoxicity assay (Cytell Cell Imaging, Cell Viability Bio App)
Conditions: read-out: Cytotoxic effects (IC50) PANC-1; cancer cell line PANC-1; tested at 1–100 μM; mean ± SD, three repeats

Below are worked cases with known answers.
> print(dat)
                             compound  measurement.target  value.reported
1  COc1ccc(Nc2nccs2)cc1 [Compound 2f]              PANC-1        > 100 µM
2   Cc1cnc(Nc2ccccc2)s1 [Compound 2e]              PANC-1        > 100 µM
3           Cc1cnc(N)s1 [Compound 2b]              PANC-1        > 100 µM

Supply IC50 value. Item: O=c1[nH]cc(F)c(=O)[nH]1 [5-Fluorouracil, reference compound]
68.3 µM

Supply IC50 value. Item: CCOC(=O)c1csc(N)n1 [Compound 2c]
> 100 µM

* * *

Assay: in vitro
Conditions: human, Chang Liver cells (normal liver cell line)
observation-type: pIC50
Worth noting: pIC50 values are minus log10 of concentrations stated in mol/L.

> print(dat)
                                   compound  value.reported
1  O=c1[nH]cc(F)c(=O)[nH]1 [5-Fluorouracil, reference compound]            4.14

Now for a further compound.
Supply pIC50 value. Item: CCOC(=O)c1csc(N)n1
4.02

* * *

pIC50 overview
System: HuTu 80
Assay: Cytotoxicity assay (Cytell Cell Imaging, Cell Viability Bio App)
Conditions: read-out: Cytotoxic effects (IC50) HuTu 80; cancer cell line HuTu 80; tested at 1–100 μM; mean ± SD, three repeats
pIC50: −log10 of the molar value.

Below are worked cases with known answers.
> print(dat)
                                   compound  value.reported
1                 Cc1cnc(N)s1 [Compound 2b]          < 4.00
2  O=c1[nH]cc(F)c(=O)[nH]1 [5-Fluorouracil, reference compound]            4.19
3         Cc1cnc(Nc2ccccc2)s1 [Compound 2e]          < 4.00
4          CCOC(=O)c1csc(N)n1 [Compound 2c]          < 4.00

Now for a further compound.
Lab note: record pIC50 of COc1ccc(Nc2nccs2)cc1 [Compound 2f] tested on HuTu 80.
< 4.00

* * *

Assay: in vitro
Settings: human
IC50 overview
Express your answer in µM, writing the number without its unit.

> print(dat)
                               query.smiles  observation.type  value.reported
1  Cc1cnc(N(c2ccccc2)c2c([N+](=O)[O-])cc([N+](=O)[O-])c3no[n+]([O-])c23)s1              IC50            85.8
2  O=[N+]([O-])c1cc([N+](=O)[O-])c2no[n+]([O-])c2c1N(c1ccccc1)c1nccs1              IC50            86.1

Now for a further compound.
Supply IC50 value. Item: CCOC(=O)c1cnc(Nc2c([N+](=O)[O-])cc([N+](=O)[O-])c3no[n+]([O-])c23)s1
100

* * *

System: M-HeLa
Conditions: human
pIC50 overview
Worth noting: pIC50 values are minus log10 of concentrations stated in mol/L.

Below are worked cases with known answers.
> print(dat)
                               query.smiles  measurement.target  value.reported
1  O=[N+]([O-])c1cc([N+](=O)[O-])c2no[n+]([O-])c2c1N(c1ccccc1)c1nccs1              M-HeLa            4.21
2  CCOC(=O)c1cnc(Nc2c([N+](=O)[O-])cc([N+](=O)[O-])c3no[n+]([O-])c23)s1              M-HeLa            4.02
3  Cc1cnc(N(c2ccccc2)c2c([N+](=O)[O-])cc([N+](=O)[O-])c3no[n+]([O-])c23)s1              M-HeLa            4.10
4  Cc1cnc(Nc2c([N+](=O)[O-])cc([N+](=O)[O-])c3no[n+]([O-])c23)s1              M-HeLa            4.15
5  O=[N+]([O-])c1cc([N+](=O)[O-])c2no[n+]([O-])c2c1Nc1nccs1              M-HeLa            4.21
6  COc1ccc(N(c2nccs2)c2c([N+](=O)[O-])cc([N+](=O)[O-])c3no[n+]([O-])c23)cc1              M-HeLa            4.25

Now for a further compound.
Supply pIC50 value. Item: Nc1nccs1
4.04
